Data origin, for the record: patent US20230374132A1

Measured On: T1, human CD3 E&D complex protein (Sino Biological Inc., CT026H0323H) (human, UniProt P07766 23-126; P04234 22-105)
T1 construct: bought heterodimer; also called human CD3 protein (CT026H0323H)
Test Method Notes: BLI, antibody on sensor
koff values by entry
// return numeric value only (unit: s⁻¹, not printed)

hzsp34.43 (antibody, human IgG1, kappa, L234A L235A, V domains shown, IgG1 L234A L235A, kappa) VH: EVQLVESGGGLVQPGGSLKLSCAASGFTFNTYAMNWVRQASGKGLEWVGRIRSKYNNYATYYADSVKDRFTISRDDSKSTLYLQMNSLKTEDTAVYYCARHGNFGNSYVSWFAYWGQGTTVTVSS VL: EIVMTQSPATLSVSPGERATLSCRSSTGAVTTSNYANWVQQKPGQAPRGLIGGTNKRAPGVPARFSGSGSGDEFTLTISSLQSEDFAVYYCALWYSNLWVFGQGTKLTVLR = 0.00453
hzsp34.19 (antibody, human IgG1, lambda, L234A L235A, V domains shown, IgG1 L234A L235A, lambda) VH: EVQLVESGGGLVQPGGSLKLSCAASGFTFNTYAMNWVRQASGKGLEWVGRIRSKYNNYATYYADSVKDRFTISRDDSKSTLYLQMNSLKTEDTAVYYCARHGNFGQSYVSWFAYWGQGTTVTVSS VL: QAVVTQEPSLTVSPGGTVTLTCRSSTGAVTTSNYANWVQQKPGQAPRGLIGGTNKRAPGVPARFSGSLLGGKAALTLLGAQPEDEAEYYCALWYSNLWVFGQGTKLTVLG = 0.00233

Consider the additional binder presented here.
koff reading for hzsp34.22 (antibody, human IgG1, lambda, L234A L235A, V domains shown, IgG1 L234A L235A, lambda) VH: EVQLVESGGGLVQPGGSLKLSCAASGFTFNTYAMNWVRQASGKGLEWVGRIRSKYNNYATYYADSVKDRFTISRDDSKNTLYLQMNSLKTEDTAVYYCARHGNFGNSYVSWFAYWGQGTTVTVSS VL: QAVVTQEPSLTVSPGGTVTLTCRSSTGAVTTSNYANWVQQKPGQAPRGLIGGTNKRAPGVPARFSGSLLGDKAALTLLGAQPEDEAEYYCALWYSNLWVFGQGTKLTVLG : 0.00214
